Tested on: CaCl2-induced cardiac arrhythmias, fibrillation and cardiac death in mice
test_name: Antiarrhythmic/antifibrillatory activity in anesthetized mice, calcium chloride challenge
Format: in vivo, mice of the Swiss Webster Strain
conditions: Mus musculus, iv, 0.25 h; Dose = 10 mg/kg I.V.; calcium chloride 200 mg/kg i.v.; 15 minutes observation; read-out: CaCl2 Mice Surviving / Mice Tested (converted)
Excerpt: Intravenous administration of high doses of calcium or potassium chloride in animals produces cardiac arrhythmias, cardiac fibrillation and cardiac arrest. Any agent that can prevent these events is considered an antiarrhythmic/antifibrillatory agent. (Meth. and Find Exptl. Clin Pharmacal.2:223-252(1980); Pharmacol Ther. 24:401-433 (1984); Experimental Cardiac and Antiarrhythmic Drugs, L. Szekeres and Gy. J. Dapp, Akademiai Kiado Preso, Budapest, 9-448 (1971)). […]
// NB: equality with 20% counts as f; only responders at 10 mg/kg strictly below is t

Record excerpt, results attached:
compound	assigned_label
CCN(CC)CC(=O)Nc1c(C)cccc1C [Lidocaine, reference compound]	f
CC(CCn1ccnc1)N=C1c2cccc3cccc(c23)N1C(c1ccccc1)c1ccccc1 (stereo not drawn) [Example 35]	t
CCN(CC)CCN1C(=NCCCn2ccnc2)c2cccc3cccc1c23 [Example 17]	t
c1ccc(C(c2ccccc2)N2C(=NCCCn3ccnc3)c3cccc4cccc2c34)cc1 [Example 7]	t
c1ccc(C(c2ccccc2)N2C(=NCCCCc3cccnc3)c3cccc4cccc2c34)cc1 [Example 30]	t

Challenge: Is the reported responders at 10 mg/kg for CN1C(=NCCCc2cccnc2)c2cccc3cccc1c23 [Example 26] strictly below 20%?
Response given: t

Challenge: Is the reported responders at 10 mg/kg for CN1C(=NCCCCc2cccnc2)c2cccc3cccc1c23 [Example 27] strictly below 20%?
Response given: f

Challenge: Is the reported responders at 10 mg/kg for c1cc2c3c(cccc3c1)N(CCCN1C(=NCCCn3ccnc3)c3cccc4cccc1c34)C2=NCCCn1ccnc1 [Example 20] strictly below 20%?
Response given: f

* * *

Tested on: CaCl2-induced cardiac arrhythmias, fibrillation and cardiac death in mice
test_name: Antiarrhythmic/antifibrillatory activity in anesthetized mice, calcium chloride challenge
Assay type: in vivo, mice of the Swiss Webster Strain
conditions: Mus musculus, iv, 0.25 h; Dose = 10 mg/kg I.V.; calcium chloride 200 mg/kg i.v.; 15 minutes observation; read-out: CaCl2 Mice Surviving / Mice Tested (converted)
readout_kind: responders at 10 mg/kg (%)
Provide the reading as a plain figure in %.

cpd_smiles	readout_kind	unit	recorded_measurement
c1ccc(CN2C(=NCCCCc3cccnc3)c3cccc4cccc2c34)cc1	responders at 10 mg/kg	%	33.3
N#CCCCCN1C(=NCCCn2ccnc2)c2cccc3cccc1c23	responders at 10 mg/kg	%	16.7
CN1C(=NCCCn2ccnc2)c2cccc3c(CO)ccc1c23	responders at 10 mg/kg	%	43.8
CCN(CC)CCN1C(=NCc2cccnc2)c2cccc3cccc1c23	responders at 10 mg/kg	%	16.7
CN1C(=NCCCn2ccnc2)c2cccc3cccc1c23	responders at 10 mg/kg	%	0

Challenge: Quote CaCl2-induced cardiac arrhythmias, fibrillation and cardiac death in mice responders at 10 mg/kg for entry c1ccc(CN2C(=NCCCn3ccnc3)c3cccc4cccc2c34)cc1 .
Response given: 83.3

Challenge: Quote CaCl2-induced cardiac arrhythmias, fibrillation and cardiac death in mice responders at 10 mg/kg for entry COc1cccc(CN2C(=NCCCn3ccnc3)c3cccc4cccc2c34)c1 .
Response given: 16.7

Challenge: Quote CaCl2-induced cardiac arrhythmias, fibrillation and cardiac death in mice responders at 10 mg/kg for entry N#CCCCCN1C(=NCCCCc2cccnc2)c2cccc3cccc1c23 .
Response given: 33.3

Challenge: Quote CaCl2-induced cardiac arrhythmias, fibrillation and cardiac death in mice responders at 10 mg/kg for entry c1cc2c3c(cccc3c1)N(CCN1CCOCC1)C2=NCCCn1ccnc1 .
Response given: 0

Challenge: Quote CaCl2-induced cardiac arrhythmias, fibrillation and cardiac death in mice responders at 10 mg/kg for entry c1ccc(CN2C(=NCCCCn3ccnc3)c3cccc4cccc2c34)cc1 .
Response given: 33.3
